# reported TGI; entries follow
- Tested on: HCT-116 colon
- Assay Name: NCI tumour cell line growth inhibition, 48 h
Parameter Measured: TGI (µM)

1. COc1cc(C(=O)/C=C/c2c(C(F)(F)F)nc3ccccn23)cc(OC)c1OC ... 3.21
2. O=[N+]([O-])c1cc(Cc2cc([N+](=O)[O-])c3cccnc3c2O)c(O)c2ncccc12 ... 16.9
3. O=c1[nH]c(=S)[nH]c(-c2ccccc2)c1Cc1c(O)ccc2ccccc12 ... 74.4
4. CNC(=O)N1N[C@H](c2ccccc2)[C@@H]1c1ccccc1 ... 36.3
5. COC(=O)c1ccc(C=C(C#N)C#N)cc1 ... 31.5
6. CC(C)=CC(=O)OC1C2C(C)=CC(O)C(O)C2(C)C2C3(O)OCC24C(CC(=O)OC14)C(C)C3O (stereo not drawn) ... 0.381
7. COC1=C(OC)C(=O)C(CCCCCCCCCCO)=C(C)C1=O ... 16.1
8. CCC(=O)C(CCN1CCC(N2C(=O)C(CCC#N)c3ccccc32)CC1)(c1ccccc1)c1ccccc1 (stereo not drawn) ... 17
9. O=C(NCCCCCCCN1CCCCCCC1)C(C1CCCCC1)C1CCCCC1 ... 21.5
10. CSc1nc2c3ccccc3ccn2c1C(=O)N/N=C/c1ccccc1 ... 38.2
11. COC(=O)c1cc([N+](=O)[O-])cc([N+](=O)[O-])c1Cl ... 2.63
12. Clc1ccc([I+]c2ccc(Cl)cc2Cl)c(Cl)c1 ... 3.67
13. CN(C)CCCn1c2c(c3cc4c(cc3c1=O)OCO4)C(=O)c1ccccc1-2 ... 0.384

* * *

- System: KM12 colon
- Assay Name: NCI tumour cell line growth inhibition, 48 h
Overview of reported TGI across a group of compounds:
Parameter Measured: TGI (µM)

1. N#Cc1c(-c2ccccc2)cc(-c2ccccc2)n(C2OCC(O)C(O)C2O)c1=S (stereo not given) ... 27.2
2. COc1ccc(OC)c(Cc2cnc3nc(N)nc(N)c3c2C)c1 ... 20.7
3. COCCOCOC(C)(C)[C@H](CCO)O[Si](c1ccccc1)(c1ccccc1)C(C)(C)C ... 31.9
4. CC(=O)OCC(CC[CH2][Sn]([Cl])([Cl])[c]1ccccc1)OC(C)=O (stereo not given) ... 33.2

* * *

compounds and their reported TGI
- Test system: LOX IMVI melanoma
- Assay Name: NCI tumour cell line growth inhibition, 48 h
Parameter Measured: TGI

1. COc1ccc(C2CC(c3ccc(N(C)C)cc3)=NN2c2ccc(S(N)(=O)=O)cc2)cc1 (centres undefined) ... 4.02 µM
2. COc1cc(C(=O)C2CC3(CCC2(O)c2cc(OC)c(OC)c(OC)c2)CC(=O)Nc2ccccc2C3=O)cc(OC)c1OC (centres undefined) ... > 100 µM
3. O=C(CO)C1CC2C=CC1C2 (centres undefined) ... > 100 µM
4. CC(=O)O[C@@H]1[C@H]2[C@@H](OC(=O)c3ccccc3)[C@@H](C)C[C@]2(O)[C@H](OC(C)=O)[C@@]2(C)[C@@H]3C[C@@](C)(OC(C)=O)C[C@@H](OC(C)=O)[C@@]3(OC(C)=O)C[C@@]12C ... > 10 µM
5. O=S(=O)(NCCCNc1cc(-c2cn(-c3ccccc3)nc2-c2cccc(O)c2)ccn1)c1ccc(F)cc1 ... 10.7 µM
6. CN(C)c1nc(N)c(C#N)c(C#N)c1C#N ... > 10 µM
7. c1n[nH]cc1C12C3C4C5C3C1C5C42 (centres undefined) ... > 100 µM
8. C[C@H]1CN(C2COC2)CCN1c1ccc(Nc2cc(-c3ccnc(N4CCn5c(cc6c5CC(C)(C)C6)C4=O)c3CO)cn(C)c2=O)nc1 ... > 100 µM
9. COc1ccc2nc3cc(Cl)ccc3c(N3CCN(c4ccnc(N5CCN(C)CC5)n4)CC3)c2c1 ... 3.45 µM

// provenance: PubChem BioAssay (NCI)
